Values compiled from patent US6576675B1.

# Tested on: Breast cell lines: MCF-7, BT-20, 435
# testDetails: Viability assay (Trypan blue exclusion), breast tumor cell lines
# Assay type: cell-based
# experimentalParameters: 2.5 mM, 72 hours, read-out: % Death, tumor cell type Breast
property: cytotoxicity at 2500 µM

Item: O=S(=O)(/C=C\c1ccc(Br)cc1)Cc1ccc(Cl)cc1 | cytotoxicity at 2500 µM: > 75%

Item: O=S(=O)(/C=C\c1ccc(F)cc1)Cc1ccc(F)cc1 | cytotoxicity at 2500 µM: 40 to 50%

Item: O=S(=O)(/C=C\c1ccc(F)cc1)Cc1ccccc1Cl | cytotoxicity at 2500 µM: 20 to 25%

Item: O=S(=O)(/C=C\c1ccccc1)Cc1ccc(Cl)cc1 | cytotoxicity at 2500 µM: 20 to 25%

Item: O=S(=O)(/C=C\c1ccccc1)Cc1ccccc1Cl | cytotoxicity at 2500 µM: 20 to 25%

Item: O=S(=O)(/C=C\c1ccc(Br)cc1)Cc1ccccc1Cl | cytotoxicity at 2500 µM: 20 to 25%

Item: Cc1ccc(/C=C\S(=O)(=O)Cc2ccccc2)cc1 | cytotoxicity at 2500 µM: 20 to 25%

Item: Cc1ccc(/C=C\S(=O)(=O)Cc2ccc(F)cc2)cc1 | cytotoxicity at 2500 µM: 20 to 25%

Item: O=S(=O)(/C=C\c1ccc(Cl)cc1)Cc1ccc(F)cc1 | cytotoxicity at 2500 µM: > 75%

Item: O=S(=O)(/C=C\c1ccc(Cl)cc1)Cc1ccccc1 | cytotoxicity at 2500 µM: 20 to 25%

Item: O=S(=O)(/C=C\c1ccc(Br)cc1)Cc1ccccc1 | cytotoxicity at 2500 µM: 20 to 25%

Item: O=S(=O)(/C=C\c1ccc(F)cc1)Cc1ccccc1 | cytotoxicity at 2500 µM: 20 to 25%

Item: O=S(=O)(/C=C\c1ccc(Cl)cc1)Cc1ccccc1Cl | cytotoxicity at 2500 µM: 20 to 25%

Item: Cc1ccc(/C=C\S(=O)(=O)Cc2ccc(Cl)cc2)cc1 | cytotoxicity at 2500 µM: 20 to 25%

Item: O=S(=O)(/C=C\c1ccccc1)Cc1ccccc1 | cytotoxicity at 2500 µM: 10 to 20%

Item: O=S(=O)(/C=C\c1ccccc1)Cc1ccc(F)cc1 | cytotoxicity at 2500 µM: 20 to 25%
